TARGET ENTITY: HsOPRT (Homo sapiens)
Sequence (P11172 2-214 limits assumed): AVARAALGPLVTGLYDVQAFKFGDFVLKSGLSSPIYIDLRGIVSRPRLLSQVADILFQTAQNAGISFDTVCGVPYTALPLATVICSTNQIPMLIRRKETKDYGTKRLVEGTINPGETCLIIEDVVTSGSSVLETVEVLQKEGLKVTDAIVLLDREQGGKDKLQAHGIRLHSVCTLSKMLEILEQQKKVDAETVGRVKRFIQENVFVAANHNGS
ASSAY READOUT: Kd (nM)
Answers are plain numbers, in nM.

Write down measured Kd (HsOPRT (Homo sapiens)) for this compound. `O=C(O)c1cc(=O)[nH]c(=O)n1[C@@H]1O[C@H](COP(=O)(O)O)[C@@H](O)[C@H]1O` 2500
